Data origin: patent US20180116993A1

Would you mind telling me the reported Serum Glucose (mg/dl) of each entry?
# Test system: db/db mice
# experiment notes: Serum/blood metabolic parameters in high-fat diet fed db/db mice
# Type: in vivo, mouse
# condition summary: 10 mg/kg, treat for 10 days, vehicle 527 ± 63
Marks after values point to notes of the source that are not given here.

(Q) Value lookup for Serum Glucose (mg/dl); key = CC1(C)C2CCC1(C)C(OC(=O)c1ccc(F)cc1)C2 (centres unmarked)
(A) 223 ± 33^b mg/dl

(Q) Recorded Serum Glucose (mg/dl) for COc1cc(C(=O)OC2CCC3CCCCC3C2)ccc1O (centres unmarked) , please?
(A) 400 ± 51^a mg/dl

(Q) What measured Serum Glucose (mg/dl) goes with Cc1cc(C(=O)OC2CCC3CCCCC3C2)ccc1N (centres unmarked) ?
(A) 326 ± 51^a mg/dl

(Q) Which Serum Glucose (mg/dl) value is on record for O=C(OC1CCCCCCC1)c1ccc([N+](=O)[O-])cc1 [XD-24, cyclooctyl 4-nitrobenzoate] ?
(A) 307 ± 39^a mg/dl

(Q) I would be grateful if you could share the reported Serum Glucose (mg/dl) for CC1(C)C2CCC1(C)C(OC(=O)C1CCC(O)CC1)C2 (centres unmarked) .
(A) 396 ± 55^a mg/dl

(Q) Please give the measured Serum Glucose (mg/dl) for this compound: Nc1ccc(C(=O)OC2CCCCCCC2)cc1 [XD-16, cyclooctyl 4-aminobenzoate]
(A) 404 ± 46^a mg/dl

(Q) Returns the measured Serum Glucose (mg/dl) for the input compound. Input: Cc1cc(C(=O)OC2CCC3CCCCC3C2)ccc1[N+](=O)[O-] (centres unmarked)
(A) 337 ± 67^a mg/dl

(Q) I'd like to know its Serum Glucose (mg/dl). The compound in question is O=C(OC1CCC2CCCCC2C1)c1ccc(F)cc1 (centres unmarked)
(A) 400 ± 23^a mg/dl

(Q) What does the data say about its Serum Glucose (mg/dl)? Entry: CC1(C)C2CCC1(C)C(OC(=O)c1ccc(=O)oc1)C2 (centres unmarked)
(A) 399 ± 41^a mg/dl

(Q) Consider the compound shown here: COc1cc(C(=O)OC2CCC3CCCCC3C2)ccc1[N+](=O)[O-] (centres unmarked) What is its recorded Serum Glucose (mg/dl)?
(A) 366 ± 65^a mg/dl

(Q) Look up Serum Glucose (mg/dl) for this compound: O=C(OC1CC2CCC1C2)c1ccc([N+](=O)[O-])cc1 (centres unmarked)
(A) 389 ± 47^a mg/dl

====

# tested on: FXR ligand binding domain (LBD) (Homo sapiens)
# Construct: made in house
# Sequence (Q96RI1 262-486 limits assumed): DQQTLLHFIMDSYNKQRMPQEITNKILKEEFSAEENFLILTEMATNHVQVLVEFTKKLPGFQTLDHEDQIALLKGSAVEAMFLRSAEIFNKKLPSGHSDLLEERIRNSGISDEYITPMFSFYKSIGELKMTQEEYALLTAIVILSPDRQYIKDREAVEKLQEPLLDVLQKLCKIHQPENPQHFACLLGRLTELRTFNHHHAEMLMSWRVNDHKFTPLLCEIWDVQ
# experiment notes: AlphaScreen assay: FXR LBD recruitment of coregulator peptide motifs (SRC2-3, SRC1-2)
# Assay type: biochemical
# condition summary: SRC2-3 peptide; Table 2; read-out: EC50 (μM) of FXR binding by AlphaScreen assay recruit SRC2-3
Please respond with reported EC50 for every item in the list.

(Q) What value of measured EC50 is listed for Cc1cc(C(=O)OC2CC3CCC2(C)C3(C)C)ccc1N (stereo not shown) ?
(A) < 1 µM

(Q) What does the record list as EC50 for Nc1ccc(C(=O)OC2CCC3CCCCC3C2)cc1 (stereo not shown) ?
(A) < 0.5 µM

(Q) Query (molecule): Cc1cc(C(=O)OC2CCC3CCCCC3C2)ccc1[N+](=O)[O-] (stereo not shown) ; field requested: EC50
(A) 1 to 10 µM

(Q) Fill blank: measured EC50 of the molecule CC1(C)C2CCC1(C)C(OC(=O)c1ccc(=O)oc1)C2 (stereo not shown) is ____.
(A) 1 to 10 µM

(Q) Entry under review: O=C(OC1CCC2CCCCC2C1)c1ccc(F)cc1 (stereo not shown) . Reported EC50?
(A) < 1 µM

(Q) Fill in the blank: the reported EC50 of CC1(C)C2CCC1(C)C(OC(=O)c1ccncc1)C2 (stereo not shown) is ____.
(A) 1 to 10 µM

(Q) Entry Nc1ccc(C(=O)OC2CC3CCC2C3)cc1 (stereo not shown) has what EC50?
(A) 1 to 10 µM

(Q) Quick check: EC50 of CC1(C)C2CCC1(C)C(OC(=O)c1ccc(F)cc1)C2 (stereo not shown) ?
(A) 1 to 10 µM

(Q) I would be grateful if you could share the reported EC50 for O=C(OC1CCC2CCCCC2C1)c1ccc(O)cc1 (stereo not shown) .
(A) < 0.5 µM

(Q) Suppose we examine the molecule Cc1cc(C(=O)OC2CC3CCC2(C)C3(C)C)ccc1F (stereo not shown) ; what EC50 value has been reported?
(A) 1 to 10 µM

(Q) Which EC50 is listed for CC1(C)C2CCC1(C)C(OC(=O)c1ccc(F)c(Br)c1)C2 (stereo not shown) ?
(A) < 1 µM

(Q) Fill in the blank: the reported EC50 of COc1cc(C(=O)OC2CC3CCC2(C)C3(C)C)ccc1F (stereo not shown) is ____.
(A) 1 to 10 µM

(Q) What does the record list as EC50 for COc1cc(C(=O)OC2CCCCCCC2)ccc1O [XD-18, cyclooctyl 4-hydroxy-3-methoxybenzoate] ?
(A) < 1 µM

(Q) For COc1cc(C(=O)OC2CCC3CCCCC3C2)ccc1O (stereo not shown) , what is its reported EC50?
(A) < 0.5 µM

(Q) Look up EC50: CC1(C)C2CCC1(C)C(OC(=O)c1ccc(N)cc1)C2 (stereo not shown)
(A) < 1 µM

(Q) What value of measured EC50 is listed for Nc1ccc(C(=O)OC2CCCCCC2)cc1 [XD-12, cycloheptyl 4-aminobenzoate] ?
(A) > 10 µM
